Give EC50 for every item shown.
# Tested on: HIV-1 NL4.3
# ASSAY_COMMENT: Anti-HIV-1 assay in MT-4 cells (tetrazolium-based colorimetric, cytopathic effect)
# Assay type: cell-based
# RUN_PARAMETERS: Human immunodeficiency virus 1, MT4; 50% protection of MT-4 cells against HIV-induced cytopathicity; mean ± SD; read-out: HIV-1 NL4.3 EC50
Give bare numbers, in nM.

Solved entries (count: 2):
Cc1cccnc1CN(CCCCN)Cc1ccccn1: 230
NCCCCN(Cc1nccc2ccccc12)C1CCCc2cccnc21 (stereo not drawn) [Compound 19e]: 84

# context switch: different compound, same EC50
The reported EC50 of the compound NCCCCN(Cc1nccc2cc(F)ccc12)C1CCCc2cccnc21 (stereo not drawn) [Compound 19c] was 16
